# TARGET_SYSTEM: PI3K δ (Homo sapiens, UniProt O00329)
# Construct: purchased Thermo Fisher Scientific-Biosciences Life Sciences Solutions, Madison, Wis; (contract assay)
# Sequence (O00329 whole entry): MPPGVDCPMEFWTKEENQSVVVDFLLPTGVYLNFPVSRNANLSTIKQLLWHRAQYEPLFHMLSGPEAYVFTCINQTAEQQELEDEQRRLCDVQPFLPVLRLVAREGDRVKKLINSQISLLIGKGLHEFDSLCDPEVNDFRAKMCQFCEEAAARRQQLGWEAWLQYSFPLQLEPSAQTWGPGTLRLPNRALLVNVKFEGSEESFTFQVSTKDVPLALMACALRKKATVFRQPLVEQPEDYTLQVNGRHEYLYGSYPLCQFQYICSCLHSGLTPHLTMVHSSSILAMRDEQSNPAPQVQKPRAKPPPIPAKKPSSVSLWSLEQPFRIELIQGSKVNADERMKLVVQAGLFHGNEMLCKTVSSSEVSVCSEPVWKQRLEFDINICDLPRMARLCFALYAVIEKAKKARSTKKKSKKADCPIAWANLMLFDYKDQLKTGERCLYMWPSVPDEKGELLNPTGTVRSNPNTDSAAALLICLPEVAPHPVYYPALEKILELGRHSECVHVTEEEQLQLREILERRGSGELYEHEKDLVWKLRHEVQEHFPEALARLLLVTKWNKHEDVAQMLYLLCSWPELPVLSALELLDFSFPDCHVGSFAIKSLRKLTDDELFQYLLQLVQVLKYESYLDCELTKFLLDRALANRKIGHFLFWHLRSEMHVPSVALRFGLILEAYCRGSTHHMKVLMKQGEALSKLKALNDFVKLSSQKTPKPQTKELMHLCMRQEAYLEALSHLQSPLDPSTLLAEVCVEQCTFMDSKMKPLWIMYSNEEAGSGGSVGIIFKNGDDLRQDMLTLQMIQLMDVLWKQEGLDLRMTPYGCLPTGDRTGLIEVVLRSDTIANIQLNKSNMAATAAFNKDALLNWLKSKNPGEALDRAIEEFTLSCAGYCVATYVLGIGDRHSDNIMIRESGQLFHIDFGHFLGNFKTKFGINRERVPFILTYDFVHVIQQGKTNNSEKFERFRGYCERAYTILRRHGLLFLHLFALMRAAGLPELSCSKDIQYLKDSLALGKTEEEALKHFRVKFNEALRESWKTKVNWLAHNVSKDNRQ
# Sequence (P27986 whole entry partner): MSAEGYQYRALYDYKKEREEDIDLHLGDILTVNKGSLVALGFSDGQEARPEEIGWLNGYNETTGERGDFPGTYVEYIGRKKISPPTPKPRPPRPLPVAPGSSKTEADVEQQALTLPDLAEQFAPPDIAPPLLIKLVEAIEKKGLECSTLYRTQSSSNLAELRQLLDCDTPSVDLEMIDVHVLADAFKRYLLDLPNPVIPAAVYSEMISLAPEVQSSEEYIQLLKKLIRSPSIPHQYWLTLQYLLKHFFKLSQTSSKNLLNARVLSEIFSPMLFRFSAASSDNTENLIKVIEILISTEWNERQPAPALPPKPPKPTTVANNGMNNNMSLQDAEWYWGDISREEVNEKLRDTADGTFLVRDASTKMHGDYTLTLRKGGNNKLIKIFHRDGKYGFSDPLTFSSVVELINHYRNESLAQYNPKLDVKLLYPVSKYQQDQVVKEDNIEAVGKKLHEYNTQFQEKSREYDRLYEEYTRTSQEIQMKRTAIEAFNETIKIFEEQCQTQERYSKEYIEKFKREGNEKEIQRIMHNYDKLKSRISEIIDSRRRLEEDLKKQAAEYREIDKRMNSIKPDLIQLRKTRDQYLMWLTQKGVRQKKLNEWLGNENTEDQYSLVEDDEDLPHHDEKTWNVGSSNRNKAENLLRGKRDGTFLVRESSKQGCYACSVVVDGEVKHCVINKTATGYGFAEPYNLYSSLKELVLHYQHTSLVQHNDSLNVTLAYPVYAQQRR
# ASSAY_DETAILS: PI3K delta inhibition (Thermo Fisher Scientific)
# Format: biochemical
# MEASUREMENT_SETUP: 10-point curve; read-out: Target IC50 PI3K δ
IC50 values by entry

| COMPOUND_STRUCTURE | IC50 |
| --- | --- |
| C=CC(=O)Nc1cccc(-c2csc3c(=O)cc(N4CCNCC4)oc23)c1.O=C(O)C(F)(F)F | > 50 µM |

Lab note: next compound to report on.
Problem: Can you look up the measured IC50 of CC#CC(=O)Nc1cccc(-c2csc3c(=O)cc(N4CCOCC4)oc23)c1 for me?
Solution: < 1 µM
